Origin of measurements: PubChem BioAssay AID651999

Please provide measured inhibition for the entries that follow.
# Assayed system: COP9 signalosome complex subunit 5 (Homo sapiens)
# Assay name: CSN5 deneddylase inhibitors on cullin-RING ligase – biochemical, fluorescence polarization, uHTS, primary screen (AID 651999);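 note: 0% = enzyme with substrate and 100% = substrate without enzyme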
# Experimental parameters: Purified CSN, SCF-Nedd8-OG deneddylation, at 12.5 µM, hits give high values
In all, about 360,000 compounds went through this assay and about 1,400 (0.39%) were called active. The sample as a whole holds a higher share of actives than the screen did.
Number only, in %; omit the unit.

Specify the recorded inhibition for CC(=O)c1cc(NC(=O)c2ccccc2)c(=O)oc1/C=C/N(C)C , system: COP9 signalosome complex subunit 5 (Homo sapiens). 55.4

Specify the recorded inhibition for CC(C)Cn1c(N)c(C(=O)NCc2cccs2)c2nc3ccccc3nc21 , system: COP9 signalosome complex subunit 5 (Homo sapiens). 36

Specify the recorded inhibition for C#CCOCCOCCOCCNc1nc(N2CCOCC2)nc(N2CCN(C(=O)[C@H](Cc3ccc(O)cc3)n3cc(CCO)nn3)CC2)n1 , system: COP9 signalosome complex subunit 5 (Homo sapiens). -2.16

Specify the recorded inhibition for CCOC(=O)N1CCN(S(=O)(=O)N2CCCC(C(=O)NCCCN3CCC(C)CC3)C2)CC1 (centres undefined) , system: COP9 signalosome complex subunit 5 (Homo sapiens). 2.45

Specify the recorded inhibition for O=C(NCc1cccs1)c1ccc(Br)o1 , system: COP9 signalosome complex subunit 5 (Homo sapiens). -0.05

Specify the recorded inhibition for COc1ccc(CN2CN(C3CCCC3)CSC2=S)cc1 , system: COP9 signalosome complex subunit 5 (Homo sapiens). -9.41

Specify the recorded inhibition for O=C(O[C@H]1[C@H](Cc2ccccc2)NS(=O)(=O)[C@H]2C[C@@H]3C=C[C@]12O3)c1ccc([N+](=O)[O-])cc1 , system: COP9 signalosome complex subunit 5 (Homo sapiens). 0.94

Specify the recorded inhibition for Cc1ccc(N=C2NC(=O)/C(=C/C=C/c3ccco3)S2)cc1C , system: COP9 signalosome complex subunit 5 (Homo sapiens). 51.9

Specify the recorded inhibition for O=C(Cc1coc2ccc3ccccc3c12)NCc1cccs1 , system: COP9 signalosome complex subunit 5 (Homo sapiens). -8.34

Specify the recorded inhibition for COC(=O)c1cc(NC(=O)CC2C(=O)NCCN2C(=O)c2ccc(F)cc2)cc(C(=O)OC)c1 (centres undefined) , system: COP9 signalosome complex subunit 5 (Homo sapiens). 0.24

Specify the recorded inhibition for CC(C)N1CCC(NC(=O)Nc2ccccc2)CC1 , system: COP9 signalosome complex subunit 5 (Homo sapiens). -2.66

Specify the recorded inhibition for CCOC(=O)c1cc(NC(=O)c2ccc(Cl)cc2)c(=O)oc1-c1ccccc1 , system: COP9 signalosome complex subunit 5 (Homo sapiens). -2.25

Specify the recorded inhibition for C#CCOCCOCCOCCNc1nc(N2CCN(C(=O)CCCCCCCCCCNC(=O)Cn3cc(CCCCCN)nn3)CC2)nc(N2CCN(C(=O)CCCCCCCCCCNC(=O)[C@H](CO)n3cc(CCCSC)nn3)CC2)n1 , system: COP9 signalosome complex subunit 5 (Homo sapiens). 89

Specify the recorded inhibition for COc1ccc(C2COC(=O)C2=N)c(NC(=O)c2ccccc2)c1 (centres undefined) , system: COP9 signalosome complex subunit 5 (Homo sapiens). -4.82

Specify the recorded inhibition for C#CCOCCOCCOCCNc1nc(N2CCN(C(=O)C([C@@H](C)O)n3cc([C@@H](N)CCCCN)nn3)CC2)nc(N2CCN(C(=O)[C@H](CCCCN)n3cc(CN)nn3)CC2)n1 (some centres undefined) , system: COP9 signalosome complex subunit 5 (Homo sapiens). 37

Specify the recorded inhibition for CCCNC(=O)C1(C)CCCN(Cc2cccc(C(F)(F)F)c2)C1 (centres undefined) , system: COP9 signalosome complex subunit 5 (Homo sapiens). 1.08

Specify the recorded inhibition for CC1=CC(=NNS(=O)(=O)c2ccc([N+](=O)[O-])cc2)CC(C)(C)C1 , system: COP9 signalosome complex subunit 5 (Homo sapiens). 8.55

Specify the recorded inhibition for CCOc1c(Br)cc(/C=C2\C(=O)N(CCC#N)N=C2C)cc1OC , system: COP9 signalosome complex subunit 5 (Homo sapiens). 2.79

Specify the recorded inhibition for O=C(COc1ccc(S(=O)(=O)N2CCCCC2)cc1)NCc1ccccn1 , system: COP9 signalosome complex subunit 5 (Homo sapiens). -4.23

---

# Assayed system: COP9 signalosome complex subunit 5 (Homo sapiens)
# Assay name: CSN5 deneddylase inhibitors on cullin-RING ligase – biochemical, fluorescence polarization, uHTS, primary screen (AID 651999);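 note: 0% = enzyme with substrate and 100% = substrate without enzyme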
# Experimental parameters: Purified CSN, SCF-Nedd8-OG deneddylation, at 12.5 µM
Hit rate of the full screen: of about 360,000 compounds, about 1,400 (0.39%) were called active.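 How the source made its calls: active means pattern-corrected inhibition above about 35%, with an unprinted fluorescence ratio check between 0.5 and 1.5 (limit read from the data, passing the limit was not always enough); inactive means the rest.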 The sample holds actives, similar compounds and a random draw of the others, so the mix is not that of the screen.
The reply should be one of these categories: active, inactive

Test call for this compound, please: Cc1noc(NS(=O)(=O)c2ccc(N3CC(O)=C(c4ccccc4)C3=N)cc2)c1C inactive

Test call for this compound, please: O=C(C1CCN(C2CCN(Cc3ccc4cc(F)ccc4n3)CC2)CC1)N1CCCC1 inactive

Test call for this compound, please: Nc1c(-c2ccc(F)cc2)cnc2ncnn12 inactive

Test call for this compound, please: CC1CC(C)CN(C(=O)CCNC(=O)Cn2cnc3ccccc3c2=O)C1 (centres undefined) inactive

Test call for this compound, please: CCc1nc2ccc(C(=O)N(C)CCN(C)C)cn2c1N(CC)CCOC inactive

Test call for this compound, please: CC(C)(C)c1ccc(C(=O)N2CCC(C(=O)N3CCCCC3)CC2)cc1 inactive

Test call for this compound, please: O=C(CCC(=O)N1CCCC1)Nc1ccc([N+](=O)[O-])cc1 inactive

Test call for this compound, please: O=C(O)C(c1ccccc1)N1C(=O)/C(=C\c2ccc(-c3cccc(Cl)c3)o2)SC1=S (centres undefined) active

Test call for this compound, please: CCOc1cc(CNn2c(C)nnc2SCC(=O)NC(C)(C)C)ccc1OCC(=O)NC(C)(C)C inactive

Test call for this compound, please: O=C(O)c1ccccc1NC(=S)NC(NC(=O)c1ccccc1[N+](=O)[O-])C(Cl)(Cl)Cl (centres undefined) inactive

Test call for this compound, please: CSCc1ccc(C(=O)Nc2cc(C)cc(C)c2)cc1 inactive

Test call for this compound, please: OC[C@@H]1CN(Cc2cccs2)C[C@H](n2cnc3c(Nc4ccccc4)ncnc32)O1 inactive

Test call for this compound, please: NC(=O)c1c(NC(=O)CSc2nnc(-c3ccco3)n2N)sc2c1CCCC2 inactive

Test call for this compound, please: COC(=O)c1c(-c2cccs2)csc1NC(=O)CSc1ncnc2sc(C)c(C)c12 inactive

Test call for this compound, please: CCOC(=O)C1CCCN(CCSc2ccc(C)cc2)C1 (centres undefined) inactive

Test call for this compound, please: COc1ccc(C(c2nnnn2C2CCCC2)N2CCN(C/C=C/c3ccccc3)CC2)cc1 (centres undefined) inactive

Test call for this compound, please: Nc1nnc2c(C(F)(F)F)nc3ccccc3n12 inactive

Test call for this compound, please: C=CCN(c1ccc(Cl)cc1)S(=O)(=O)c1cccc(C(=O)OCC(=O)N(C)C)c1 inactive

Test call for this compound, please: O=C1NC2(CCCCC2)N=C1c1ccccc1 inactive

Test call for this compound, please: Cc1cc(F)ccc1S(=O)(=O)Nc1ncnc2scc(-c3ccc(F)cc3)c12 inactive

Test call for this compound, please: CN(CC(=O)NC1CCCCC1)S(=O)(=O)c1cccc2cccnc12 inactive

Test call for this compound, please: CC(=O)Nc1cc(-c2ccc(N3CCN(C)CC3)cc2)cn2c(-c3ccc(F)cc3)cnc12 inactive

Test call for this compound, please: CC(C)C1CC2=C(C(=O)OC(C)(C)O2)C(c2ccc(F)cc2)O1 (centres undefined) inactive

Test call for this compound, please: O=C1CSC(c2ccc(Cl)cc2)N1 (centres undefined) inactive

---

# Assayed system: COP9 signalosome complex subunit 5 (Homo sapiens)
# Assay name: CSN5 deneddylase inhibitors on cullin-RING ligase – biochemical, fluorescence polarization, uHTS, primary screen (AID 651999);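 note: 0% = enzyme with substrate and 100% = substrate without enzyme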
# Experimental parameters: Purified CSN, SCF-Nedd8-OG deneddylation, at 12.5 µM, hits give high values
In all, about 360,000 compounds went through this assay and about 1,400 (0.39%) were called active. The sample holds actives, similar compounds and a random draw of the others, so the mix is not that of the screen.
Please provide measured inhibition for the entries that follow.
Number only, in %; omit the unit.

Quick one: give measured inhibition for Cc1cc2nc(-c3ccc(Cl)cc3)c(Cc3cccc(F)c3)n2c(C)c1Br 3.52

Quick one: give measured inhibition for CC1COc2ccccc2N1S(=O)(=O)c1ccccc1 (configuration not stated) -12.8

Quick one: give measured inhibition for CCCNC(=O)c1ccc(N2CCC3(CC2)CC(c2cccc(Br)c2)=NO3)c(NC(=O)c2ccco2)c1 -1.32

Quick one: give measured inhibition for Cc1cccc(N2CCN(C(=O)/C=C/c3ccco3)CC2)c1C -6.8

Quick one: give measured inhibition for CS(=O)(=O)c1ccc(-c2nnn(CC(=O)Nc3ccc4c(c3)OCCO4)n2)cc1 0.36

Quick one: give measured inhibition for COCCCn1c(C(=O)NC2CCCCC2)cc2c(=O)n3cccc(C)c3nc21 -3.61

Quick one: give measured inhibition for Cc1ccc(OCCNC(=O)c2cccc(S(=O)(=O)N3CCN(Cc4ccccc4)CC3)c2)cc1 -1.93

Quick one: give measured inhibition for CCCCCCCC1(C)NC(=O)N(CC(=O)Nc2cc(C)on2)C1=O (configuration not stated) -7.92

Quick one: give measured inhibition for CCN(/N=C/c1ccc(N(C)C)cc1)c1nc2ccccc2[nH]1 -1.85

Quick one: give measured inhibition for Cc1cccc(N2C(=O)SC(SC(=Nc3ccccc3)Nc3ccccc3)C2=O)c1 (configuration not stated) -2.12

Quick one: give measured inhibition for NC(=S)c1ccc(C(N)=S)o1 2.12

Quick one: give measured inhibition for COc1cc(/C=C(\C#N)c2nc3c(s2)CC(C)CC3)ccc1O (configuration not stated) 82

Quick one: give measured inhibition for COc1ccc(N2CCN(C(=O)CNS(=O)(=O)c3ccc(C)c(C)c3)CC2)cc1 -4.8

Quick one: give measured inhibition for CCOc1ccc(/C=C(/NC(=O)c2ccccc2)C(=O)NCCC(=O)O)cc1 -10.6

Quick one: give measured inhibition for Cc1ccc([C@H]2C[C@H](O)[C@@H](n3cc(COC(=O)c4ccccc4)nn3)CN2CC2CCCCC2)cc1 -1.77

Quick one: give measured inhibition for CCOc1ccc(NS(=O)(=O)c2ccc(C)c(C(N)=O)c2)cc1 8.11

Quick one: give measured inhibition for CC(NC(=O)C(=O)N/N=C/c1ccc(Cl)cc1)c1ccccc1 (configuration not stated) -2.35

Quick one: give measured inhibition for C/C(=N\NC(N)=S)c1cccnc1 -5.1

Quick one: give measured inhibition for O=C(N/N=C/c1ccc(Cl)cc1)c1nc2ccc([N+](=O)[O-])cc2c(=O)[nH]1 56.7

Quick one: give measured inhibition for O=C(Nc1ccc(C2CC2(Cl)Cl)cc1)c1cccc([N+](=O)[O-])c1 (configuration not stated) -0.73

Quick one: give measured inhibition for O=C(Nc1ccc(Cl)c(Cl)c1)c1ccccc1NC(=O)C1CC=CCC1C(=O)O (configuration not stated) -4.09

Quick one: give measured inhibition for C=CCn1c(=S)[nH]c2scc(-c3ccco3)c2c1=O 35.8

Quick one: give measured inhibition for COc1ccc(NS(=O)(=O)c2ccc(C)c(C(=O)N(C)Cc3ccc(OC)cc3OC)c2)cc1 157

Quick one: give measured inhibition for Cc1cc(N(C)C)cc(C)[n+]1[O-] -2.98

Quick one: give measured inhibition for O=C(Nc1cc2c3c(c1)C1CCCC1CN3CC1CCCC21)c1ccc([N+](=O)[O-])cc1 (configuration not stated) -4.37

Quick one: give measured inhibition for Cc1cc2nc(-c3ccc(F)cc3)c(Cc3ccsc3)n2c(C)c1Br -4.07

Quick one: give measured inhibition for CC1(C)C2CCC1(CS(=O)(=O)NCCc1c[nH]c3ccccc13)C(=O)C2 (configuration not stated) -3.93

Quick one: give measured inhibition for O=C(CN1C(=O)CCS(=O)(=O)c2ccccc21)NCc1ccc(F)cc1 2.38

Quick one: give measured inhibition for CN(C)N=Nc1ccc2nc[nH]c2c1 -1.48

Quick one: give measured inhibition for CC(C)C(=O)Nc1oc(-c2ccccc2)cc1C#N 5.77

Quick one: give measured inhibition for CS(=O)(=O)c1ccc2c(c1)SC1=NC(=O)/C(=C/c3ccco3)C(=N)N12 58.8

Quick one: give measured inhibition for O=C(NCc1ccncc1)C(=O)NCc1ccco1 -6.34
